// Screen Rabbit/No Protein lookup, one value per entry
- Test system: rabbit vWF A1 domain (SEQ ID NO 6)
- Sequence (as listed by the source): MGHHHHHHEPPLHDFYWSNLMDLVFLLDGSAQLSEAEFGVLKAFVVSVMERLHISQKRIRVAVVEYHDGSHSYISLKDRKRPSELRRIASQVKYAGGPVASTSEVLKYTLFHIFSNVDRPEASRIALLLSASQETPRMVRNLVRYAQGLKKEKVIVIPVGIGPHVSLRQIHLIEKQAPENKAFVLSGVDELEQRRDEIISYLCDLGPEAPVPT
- ASSAY NAME: 3-point dot blot screen, rabbit vWF A1 domain
- Type: binding
- CONDITIONS USED: 3-point dot blot screen, 20 nM rabbit vWF A1 domain; ratio of fraction of aptamer bound with target protein to fraction bound without protein
READOUT KIND: Screen Rabbit/No Protein

INSERT INTO assay_data (molecule, obs_value) VALUES
  ('AMX236.G1: DNA SELEX 2 aptamer clone (nucleic acid, DNA, backbone not given here, DNA SELEX 2 aptamer clone) CTACCTACGATCTGACTAGCCTCAGATTGACTCCGGCTGACTTGTTTTAATCTTCTGAGTGCTTACTCTCATGTAGTTCC', 1.51),
  ('AMX237.B4: DNA SELEX 2 aptamer clone (nucleic acid, DNA, backbone not given here, DNA SELEX 2 aptamer clone) DNA: CTACCTACGATCTGACTAGCTCCAGTGTTTCATCCAATAACCGTGCGGTGCTTCCGTGAGCTTACTCTCATGTAGTTCC', 1.38),
  ('AMX237.C11: DNA SELEX 2 aptamer clone (nucleic acid, DNA, backbone not given here, DNA SELEX 2 aptamer clone) DNA: CTACCTACGATCTGACTAGCGTGCAGTGCCTATTCTAGGCCGTGCGGTGCCTCCGTCATGCTTACTCTCATGTAGTTCC', 1.95),
  ('AMX237.E9: DNA SELEX 2 aptamer clone (nucleic acid, DNA, backbone not given here, DNA SELEX 2 aptamer clone) DNA: CTACCTACGATCTGACTAGCTCCAGTGTTTTGTCTAATAACCGTGCGGTGCCTCCGTGAGCTTACTCTCATGTAGTTCC', 2.06);
